test: Stability of apelin analogs in rat plasma; format: in vitro ADME; settings: rat, plasma, pH 7.4
Numbered stars: 1 amine (or outer) side, 2 acyl side, 3 side chain; on linkers, the order of the positions; unused ones are H or OH. Bridge positions count the residues as written; N and C are the ends. Square brackets hold non-standard residues; d marks the D form. Peptide text beside a SMILES is read from it. ξ: configuration not given here. ξAbu(3ξ-yl) = CC(C(N[*:1])C(=O)[*:2])[*:3]; pGlu = O=C1CC[C@@H](C(=O)O)N1; X1 = CC=C(N[*:1])C(=O)[*:2]; ξC = NC(CS)C(=O)O
quantity_kind: half-life at 0.1 mg/ml (h)
Kindly provide the numeric value in h only, without the unit symbol.

compound	observed_value
CSCC[C@H](NC(=O)C1CSC(C)C(NC(=O)[C@H](CC(C)C)NC(=O)[C@H](CCCNC(=N)N)NC(=O)[C@@H]2CCCN2C(=O)[C@H](CCCNC(=N)N)NC(=O)[C@@H]2CCC(=O)N2)C(=O)N[C@@H](Cc2c[nH]cn2)C(=O)N[C@@H](CCCCN)C(=O)NCC(=O)N1)C(=O)N1CCC[C@H]1C(=O)N[C@@H](Cc1ccccc1)C(=O)O (some centres unmarked) [pEApeM8, pERPRLmeLanHKGmeLanMPF] ([pGlu]RPRL[ξAbu(3ξ-yl)]HKG[ξC]MPF-OH; thioether 6-10; C-terminus assumed)	24

Note: attention shifts to another entry.
input: Output measured half-life at 0.1 mg/ml for this item: CC=C(NC(=O)[C@H](CCSC)NC(=O)[C@@H]1CCCN1C(=O)C1CSC(C)C(NC(=O)[C@H](CC(C)C)NC(=O)[C@H](CCCNC(=N)N)NC(=O)[C@@H]2CCCN2C(=O)[C@H](CCCNC(=N)N)NC(=O)[C@@H]2CCC(=O)N2)C(=O)N[C@@H](Cc2c[nH]cn2)C(=O)N[C@@H](CCCCN)C(=O)N1)C(=O)N[C@@H](Cc1ccccc1)C(=O)O (some centres unmarked) [pEApeM5T, pERPRLmeLanHKmeLanPMDhbF] ([pGlu]RPRL[ξAbu(3ξ-yl)]HK[ξC]PM[X1]F-OH; thioether 6-9; C-terminus assumed)
output: 24

###

experiment: Stability of apelin analogs in rat plasma; format: in vitro ADME; details: rat, plasma, pH 7.4
Numbered stars: 1 amine (or outer) side, 2 acyl side, 3 side chain; on linkers, the order of the positions; unused ones are H or OH. Bridge positions count the residues as written; N and C are the ends. Square brackets hold non-standard residues; d marks the D form. Peptide text beside a SMILES is read from it. ξ: configuration not given here. ξAbu(3ξ-yl) = CC(C(N[*:1])C(=O)[*:2])[*:3]; pGlu = O=C1CC[C@@H](C(=O)O)N1; ξC = NC(CS)C(=O)O
quantity_kind: half-life at 0.1 mg/ml (h)
Kindly provide the numeric value in h only, without the unit symbol.

Here are 3 compounds together with their reported answers.
compound	observed_value
CSCC[C@H](NC(=O)[C@@H]1CCCN1C(=O)[C@@H]1CSCC(NC(=O)[C@H](CC(C)C)NC(=O)[C@H](CCCNC(=N)N)NC(=O)[C@@H]2CCCN2C(=O)[C@H](CCCNC(=N)N)NC(=O)[C@@H]2CCC(=O)N2)C(=O)N[C@@H](C)C(=O)N[C@@H](Cc2c[nH]cn2)C(=O)N[C@@H](CCCCN)C(=O)N1)C(=O)N1CCC[C@H]1C(=O)N[C@@H](Cc1ccccc1)C(=O)O (stereo partly shown) [pEApeI5cS I, pERPRLLanAHKLanPMPF]	3
CSCC[C@H](NC(=O)[C@@H]1CCCN1C(=O)CNC(=O)[C@@H]1CSC(C)C(NC(=O)[C@H](CC(C)C)NC(=O)[C@H](CCCNC(=N)N)NC(=O)[C@@H]2CCCN2C(=O)[C@H](CCCNC(=N)N)NC(=O)[C@@H]2CCC(=O)N2)C(=O)N[C@@H](Cc2c[nH]cn2)C(=O)N[C@@H](CCCCN)C(=O)N1)C(=O)N[C@H](C(=O)N[C@@H](Cc1ccccc1)C(=O)O)C(C)C (stereo partly shown) [pERPRLmeLanHKmeLanGPMVF] ([pGlu]RPRL[ξAbu(3ξ-yl)]HKCGPMVF-OH; thioether 6-9)	10
CSCC[C@H](NC(=O)[C@@H]1CCCN1C(=O)CNC(=O)[C@H](CCCCN)NC(=O)C1CSC(C)C(NC(=O)[C@H](CCCNC(=N)N)NC(=O)[C@@H]2CCCN2C(=O)[C@H](CCCNC(=N)N)NC(=O)[C@@H]2CCC(=O)N2)C(=O)N[C@@H](CC(C)C)C(=O)N[C@@H](C)C(=O)N1)C(=O)N1CCC[C@H]1C(=O)N[C@@H](Cc1ccccc1)C(=O)O (stereo partly shown) [pEApeI4a, pERPRmeLanLAmeLanKGPMPF] ([pGlu]RPR[ξAbu(3ξ-yl)]LA[ξC]KGPMPF-OH; thioether 5-8; C-terminus assumed)	2

input: Output measured half-life at 0.1 mg/ml for this item: CSCC[C@H](NC(=O)[C@@H]1CCCN1C(=O)CNC(=O)[C@H](CCCCN)NC(=O)C1CSC(C)C(NC(=O)[C@@H]2CCCN2C(=O)[C@H](CCCNC(=N)N)NC(=O)[C@@H]2CCC(=O)N2)C(=O)N[C@@H](CCCNC(=N)N)C(=O)N[C@@H](CC(C)C)C(=O)N[C@@H](C)C(=O)N1)C(=O)N1CCC[C@H]1C(=O)N[C@@H](Cc1ccccc1)C(=O)O (stereo partly shown) [pEApeI3c, pERPmeLanRLAmeLanKGPMPF] ([pGlu]RP[ξAbu(3ξ-yl)]RLA[ξC]KGPMPF-OH; thioether 4-8; C-terminus assumed)
output: 2
